A collection of compounds and their measured IC50
Target: HEK-Blue-hTLR9 cells (Homo sapiens)
Sequence (Q9NR96 26-1032): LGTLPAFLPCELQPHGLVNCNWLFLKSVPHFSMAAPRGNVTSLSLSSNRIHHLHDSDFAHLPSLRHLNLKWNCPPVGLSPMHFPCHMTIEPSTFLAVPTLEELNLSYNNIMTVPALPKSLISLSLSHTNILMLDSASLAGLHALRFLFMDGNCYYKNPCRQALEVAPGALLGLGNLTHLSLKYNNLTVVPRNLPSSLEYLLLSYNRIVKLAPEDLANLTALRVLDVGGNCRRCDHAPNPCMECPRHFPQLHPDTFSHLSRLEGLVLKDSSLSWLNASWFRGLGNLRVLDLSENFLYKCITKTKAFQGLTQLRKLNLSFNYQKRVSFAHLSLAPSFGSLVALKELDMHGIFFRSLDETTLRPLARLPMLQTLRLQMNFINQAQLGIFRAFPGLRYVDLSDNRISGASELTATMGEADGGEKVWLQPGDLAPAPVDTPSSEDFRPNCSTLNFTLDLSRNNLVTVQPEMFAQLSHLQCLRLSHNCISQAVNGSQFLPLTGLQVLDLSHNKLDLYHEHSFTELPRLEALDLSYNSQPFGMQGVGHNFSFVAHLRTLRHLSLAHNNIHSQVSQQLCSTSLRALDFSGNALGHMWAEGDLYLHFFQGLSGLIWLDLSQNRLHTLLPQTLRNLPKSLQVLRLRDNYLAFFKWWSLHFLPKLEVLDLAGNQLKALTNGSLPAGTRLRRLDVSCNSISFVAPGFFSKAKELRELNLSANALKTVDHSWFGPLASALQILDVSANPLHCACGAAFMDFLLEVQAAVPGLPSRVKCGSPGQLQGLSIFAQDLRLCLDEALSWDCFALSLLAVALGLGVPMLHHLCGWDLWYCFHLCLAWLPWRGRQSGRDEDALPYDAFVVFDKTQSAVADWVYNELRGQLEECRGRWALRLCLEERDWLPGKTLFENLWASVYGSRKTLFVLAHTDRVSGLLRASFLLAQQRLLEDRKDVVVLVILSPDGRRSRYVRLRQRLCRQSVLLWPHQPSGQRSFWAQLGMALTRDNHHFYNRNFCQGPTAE
Assay: HEK-Blue-hTLR9 cell inhibition assay
Conditions: ODN2006 1 µM, 16 h, OD 620 nm, read-out: TLR9 IC50

> print(dat)
                                   compound                      measured.target  measured.result
1  N#Cc1ccc(N2C[C@]3(c4nnc(C5(F)CCNC5)o4)C[C@]3(C(F)(F)F)C2)c2cccnc12 (stereo partly shown)  HEK-Blue-hTLR9 cells (Homo sapiens)          > 10 µM
2  CN1CCC(O)(c2nnc([C@]34CN(c5ccc(C(F)(F)F)c6ncccc56)C[C@@]3(C(F)(F)F)C4)o2)CC1  HEK-Blue-hTLR9 cells (Homo sapiens)           > 1 µM
3  N#Cc1ccc(N2C[C@]3(c4nnc(C#CCN5CCOCC5)o4)C[C@]3(C(F)(F)F)C2)c2cccnc12  HEK-Blue-hTLR9 cells (Homo sapiens)          > 10 µM
4  N#Cc1ccc(N2C[C@]3(c4nnc(C5(F)CCNCC5)o4)C[C@]3(C(F)(F)F)C2)c2cccnc12  HEK-Blue-hTLR9 cells (Homo sapiens)           < 1 µM
5  CN1CCC(Oc2nnc([C@]34CN(c5ccc(C(F)(F)F)c6ncccc56)C[C@@]3(C(F)(F)F)C4)o2)CC1  HEK-Blue-hTLR9 cells (Homo sapiens)           > 1 µM
6  CN1CCC(c2nnc([C@]34CN(c5c(Br)cc(C#N)n6ncc(Br)c56)C[C@@]3(C(F)(F)F)C4)o2)CC1  HEK-Blue-hTLR9 cells (Homo sapiens)           > 1 µM

Please find the next compound below.
Q: Which IC50 is reported for this compound? CN1CCC(F)(c2nnc([C@]34CN(c5ccc(C#N)c6ncccc56)C[C@@]3(C(F)(F)F)C4)o2)C1 (stereo partly shown)
Ans: > 10 µM
